biological target: CLK3 (Homo sapiens, UniProt P49761); test: CLK3 kinase activity assay (Z-lyte, Ser/Thr 18 peptide)
Sequence (P49761 whole entry): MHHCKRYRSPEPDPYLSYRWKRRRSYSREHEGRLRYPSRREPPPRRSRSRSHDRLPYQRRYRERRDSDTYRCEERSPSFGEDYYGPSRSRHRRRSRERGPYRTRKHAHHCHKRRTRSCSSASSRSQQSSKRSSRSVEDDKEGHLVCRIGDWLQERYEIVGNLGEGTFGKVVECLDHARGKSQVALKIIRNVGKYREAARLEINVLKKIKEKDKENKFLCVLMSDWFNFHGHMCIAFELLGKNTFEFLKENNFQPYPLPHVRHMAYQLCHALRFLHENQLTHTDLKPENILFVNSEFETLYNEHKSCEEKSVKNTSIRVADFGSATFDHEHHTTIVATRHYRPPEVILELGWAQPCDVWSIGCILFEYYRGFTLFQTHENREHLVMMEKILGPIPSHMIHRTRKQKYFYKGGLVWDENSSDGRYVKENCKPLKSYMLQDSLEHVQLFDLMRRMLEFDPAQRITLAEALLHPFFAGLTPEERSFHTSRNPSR
Measured Endpoint: EC50 (nM)

Please review the following examples before continuing.
CN1CCC(C(=O)Nc2c[nH]nc2-c2nc3c(-c4cccc(F)c4)cccc3[nH]2)CC1 10
c1cncc(-c2ccc3[nH]nc(-c4cc5c(-c6cccnc6)cncc5[nH]4)c3c2)c1 2.5
CN(C)CCOc1cncc(-c2cc3c(-c4cc5c(-c6cccnc6)ccnc5[nH]4)n[nH]c3cn2)c1 19.3
CN1CCN(c2cc(Nc3ncc4c(-c5ccc6ncccc6c5)c[nH]c4n3)ccn2)CC1 10.3
CC(C)N1CCC(n2cc(C(=O)Nc3cc4cc(-c5cnn(C)c5)ccc4cn3)cn2)CC1 5
CN1CCC2(CC1)CN(c1cc(C(=O)Nc3cc4cc(-c5cnn(C)c5)ccc4cn3)ccn1)C2 16.2
Cc1n[nH]c2ncc(-c3cncc(OC[C@@H](N)Cc4ccccc4)n3)cc12 1280
Cn1ncc(-c2ccc3cnc(NC(=O)c4ccnc(N5CCOCC5)c4)cc3c2)c1CN1CCOCC1 10
CC(C)CC(=O)Nc1cncc(-c2ccc3[nH]nc(-c4nc5c(-c6cc(F)cc(OCCN(C)C)c6)cncc5[nH]4)c3c2)c1 10
CN1CCC(C(=O)Nc2c[nH]nc2-c2nc3c(-c4ccc(F)s4)cccc3[nH]2)CC1 21.7

[A] Cc1ncc(-c2ccc3cnc(NC(=O)c4cnn(C5CCN(C)CC5)c4)cc3c2)o1
[B] Cc1ncc(NC(=O)c2n[nH]c3ccc(-c4cnn(C5CCNCC5)c4)cc23)s1
Q. Field: entry with larger EC50 (options A / B ). Kindly state the label of the option you pick.
A. B
(B: 27 nM, A: 13.6 nM)

[P] Nc1cncc(-c2ccc3cnc(NC(=O)c4ccc(OC5CCNCC5)cc4)cc3c2)c1
[Q] CN(C)C1CCN(c2cc(C(=O)Nc3ncc4ccc(-c5cn(C)nn5)cc4n3)ccn2)CC1
[R] NC1CN(c2cncc(-c3cc4c(-c5nc6c(-c7cccc(F)c7)cccc6[nH]5)n[nH]c4cn3)n2)C1
Q. # ascending order, key=EC50 A complete answer lists every label in the requested sequence.
A. P, Q, R

[a] Fc1cccc(-c2cncc3[nH]c(-c4n[nH]cc4/C=C/c4cccnc4)nc23)c1
[b] CN1CCC(Sc2ccc3cnc(NC(=O)c4ccnc(SC5CCN(C)CC5)c4)cc3c2)CC1
Q. For the pair a and b , which member has the lower EC50 number? Kindly state the label of the option you pick.
A. b

[P] CN1CCC(Oc2ccc(NC(=O)c3n[nH]c4cc(F)c(-c5cnn(C)c5)cc34)cc2)CC1
[Q] CN1CCN(c2cc(C(=O)Nc3cc4cc(-c5cn(C)nn5)ccc4cn3)ccn2)CC1
[R] Cc1ccc(-c2cncc3[nH]c(-c4n[nH]c5ccc(-c6cncc(N)c6)nc45)nc23)s1
Q. Order the 3 molecules from highest to lowest EC50. A complete answer lists every label in the requested sequence.
A. P, Q, R
(P: 49.1 nM, Q: 24 nM, R: 10 nM)

---

tested on: Wnt responsive TOPflash reporter in SW480 colon cancer cells; experiment: TOPflash β-catenin/TCF-responsive reporter assay; assay type: cell-based, human
Measured Endpoint: pEC50
Please note pEC50 is a logarithmic value: minus log10 of concentration in mol/L. Answer with that number alone.

Q. // fetch Wnt responsive TOPflash reporter in SW480 colon cancer cells pEC50 for `C[C@H]1[C@H]2N(C(=O)CN(C)N2C(=O)NCc2ccccc2)[C@@H](Cc2ccc(OP(=O)(O)O)cc2)C(=O)N1Cc1cccc2cccnc12`
A. 5.97

Reference source: patent US20220062240A1
